# Assay Comment: in vivo
# Condition Context: male, Wistar, rat, po, 215 nmol/10 mL
Non-standard residues stand in square brackets, D forms with d. Residues, ends and D or L forms follow the SMILES beside them. Hyp = O=C(O)[C@@H]1C[C@@H](O)CN1
Test Readout: level at time molar (nM)

1 = NCC(=O)N1CCC[C@H]1C(=O)N1C[C@H](O)C[C@H]1C(=O)NCC(=O)N1CCC[C@H]1C(=O)N1C[C@H](O)C[C@H]1C(=O)NCC(=O)O [G(POG)2, Gly-(Pro-Hyp-Gly)2] (H-GP[Hyp]GP[Hyp]G-OH; N-terminus and C-terminus assumed)
2 = O=C(O)CNC(=O)[C@@H]1C[C@@H](O)CN1C(=O)[C@@H]1CCCN1C(=O)CNC(=O)[C@@H]1C[C@@H](O)CN1C(=O)[C@@H]1CCCN1 [(POG)2, (Pro-Hyp-Gly)2] (H-P[Hyp]GP[Hyp]G-OH; N-terminus and C-terminus assumed)
Lab note: check whether 1 or 2 has the lower measured level at time molar. Your choice should be expressed through its label. 1
(1: 100 nM, 2: 1100 nM)

P = C[C@H](N)C(=O)N1C[C@H](O)C[C@H]1C(=O)O [Ala-Hyp] (H-Ala-[Hyp]-OH)
Q = N[C@@H](CO)C(=O)N1C[C@H](O)C[C@H]1C(=O)O [Ser-Hyp] (H-Ser-[Hyp]-OH)
R = O=C(O)CNC(=O)[C@@H]1C[C@@H](O)CN1 [OG, Hyp-Gly] (H-[Hyp]-Gly-OH)
S = O=C(O)[C@@H]1C[C@@H](O)CN1C(=O)[C@@H]1CCCN1 [PO, Pro-Hyp] (H-Pro-[Hyp]-OH)
Rank ascending by level at time molar. Answer with the labels in sequence, matching the requested order. Q, P, R, S

----------
# Assay Comment: in vivo
# Condition Context: male, Wistar, rat, po, 215 nmol/10 mL
Non-standard residues stand in square brackets, D forms with d. Residues, ends and D or L forms follow the SMILES beside them. Hyp = O=C(O)[C@@H]1C[C@@H](O)CN1
Catalogue of level at time molar values
Value expressed in nM; do not type the unit.

{"Compound": "NCC(=O)N1CCC[C@H]1C(=O)N1C[C@H](O)C[C@H]1C(=O)NCC(=O)N1CCC[C@H]1C(=O)N1C[C@H](O)C[C@H]1C(=O)NCC(=O)N1CCC[C@H]1C(=O)N1C[C@H](O)C[C@H]1C(=O)NCC(=O)O [G(POG)3, Gly-(Pro-Hyp-Gly)3] (H-GP[Hyp]GP[Hyp]GP[Hyp]G-OH)", "Unit Tag": "nM", "level at time molar": 80}
{"Compound": "O=C(O)CNC(=O)[C@@H]1C[C@@H](O)CN1C(=O)[C@@H]1CCCN1C(=O)CNC(=O)[C@@H]1C[C@@H](O)CN1C(=O)[C@@H]1CCCN1C(=O)CNC(=O)[C@@H]1C[C@@H](O)CN1C(=O)[C@@H]1CCCN1C(=O)CNC(=O)[C@@H]1C[C@@H](O)CN1C(=O)[C@@H]1CCCN1 [(POG)4, (Pro-Hyp-Gly)4] (H-P[Hyp]GP[Hyp]GP[Hyp]GP[Hyp]G-OH)", "Unit Tag": "nM", "level at time molar": 800}
{"Compound": "N=C(N)NCCC[C@H](NC(=O)CNC(=O)[C@@H]1CCCN1C(=O)[C@H](CCCCN)NC(=O)CNC(=O)[C@@H]1CCCN1C(=O)[C@H](Cc1c[nH]cn1)NC(=O)CNC(=O)[C@H](CC(=O)O)NC(=O)[C@H](CCCCN)NC(=O)[C@@H](N)CCC(=O)O)C(=O)N1C[C@H](O)C[C@H]1C(=O)NCC(=O)N[C@@H](CCC(=O)O)C(=O)O [EKDGHPGKPGROGE] (H-EKDGHPGKPGR[Hyp]GE-OH)", "Unit Tag": "nM", "level at time molar": 100}
{"Compound": "CC(C)C[C@H](NC(=O)[C@H](Cc1c[nH]cn1)NC(=O)CNC(=O)[C@H](CC(=O)O)NC(=O)CNC(=O)[C@@H](N)CCC(=O)O)C(=O)NCC(=O)N[C@@H](CCCCN)C(=O)N1CCC[C@H]1C(=O)NCC(=O)N[C@@H](CCCNC(=N)N)C(=O)N1C[C@H](O)C[C@H]1C(=O)NCC(=O)N[C@@H](CCC(=O)O)C(=O)O [EGDGHLGKPGROGE] (H-EGDGHLGKPGR[Hyp]GE-OH)", "Unit Tag": "nM", "level at time molar": 100}

Attention now turns to another entry.
Hello, please tell me recorded level at time molar for this one: O=C(O)CNC(=O)[C@@H]1C[C@@H](O)CN1C(=O)[C@@H]1CCCN1C(=O)CNC(=O)[C@@H]1C[C@@H](O)CN1C(=O)[C@@H]1CCCN1C(=O)CNC(=O)[C@@H]1C[C@@H](O)CN1C(=O)[C@@H]1CCCN1 [(POG)3, (Pro-Hyp-Gly)3] (H-P[Hyp]GP[Hyp]GP[Hyp]G-OH) 900
